Each item that follows carries a reported protein stability index.
B1: CSTF3 (parent)
chain: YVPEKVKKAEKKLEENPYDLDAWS

- Variants of: B1
- test_summary: protein stability index of a GFP-peptide fusion (GPS, HEK-293T) (PSI 1-6); higher = more stable;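 note: lentivirally expressed fusions sorted by FACS into six bins by GFP to DsRed ratio, PSI derived from sequencing read proportions per bin multiplied by bin number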
- conditions: c terminus: a fixed tail appended
readout_type: protein stability index

| variant_label | numeric_result |
| --- | --- |
| K5D | 1.9 |
| P3D | 2.69 |
| L13I | 3.1 |
| A22Q | 2.98 |
| K11F | 2.06 |
| A22G | 2.4 |
| W23R | 2.81 |
| K11E | 2.54 |
| P17M | 2.48 |
| D19M | 2.14 |
| A9D | 1.65 |
